Attribute: screening ELISA (Avg), fold over background
# EXPERIMENTAL_TARGET: SARS-CoV-2 S1 (subunit 1) protein (SARS-CoV-2, UniProt P0DTC2 16-685)
# TEST_PROTOCOL: phage ELISA
The reply should be a number in fold over background, with the unit left off.

// returns reported screening ELISA (Avg), fold over background for input variant 2-12 (antibody, V domains shown) VH: EVQLLESGGGLVQPGGSLRLSCAASGFTFSDYPMNWVRQAPGKGLEWVSTISGSGGITFYADSVKGRFTISRDNSKNTLYLQMNSLRAEDTAVYYCVRHDEYSFDYWGQGTLVTVSS VL: DIQMTQSPSSLSASVGDRVTITCRASQSIDNYLNWYQQKPGKAPKLLIYGVSALQSGVPSRFSGSGSGTDFTLTISSLQPEDFATYYCQQSHSAPPYFFGQGTKVEIK 18.2

// returns reported screening ELISA (Avg), fold over background for input variant 2-13 (antibody, V domains shown) VH: EVQLLESGGGLVQPGGSLRLSCAASGFTFSDYPMNWVRQAPGKGLEWVSAISGSGDNTYYADSVKGRFTISRDNSKNTLYLQMNSLRAEDTAVYYCVRHDEYSFDYWGQGTLVTVSS VL: DIQMTQSPSSLSASVGDRVTITCRASQSIDTYLNWYQQKPGKAPKLLIYGASALESGVPSRFSGSGSGTDFTLTISSLQPEDFATYYCQQSHSAPPYFFGQGTKVEIK 19.1

// returns reported screening ELISA (Avg), fold over background for input variant 2-4 (antibody, V domains shown) VH: EVQLLESGGGLVQPGGSLRLSCAASGFTFSDFAMAWVRQAPGKGLEWVSAISGSGDITYYADSVKGRFTISRDNSKNTLYLQMNSLRAEDTAVYYCAREADGLHSPWHFDLWGQGTLVTVSS VL: DIQMTQSPSSLSASVGDRVTITCRASQSIDTYLNWYQQKPGKAPKLLIYAASALASGVPSRFSGSGSGTDFTLTISSLQPEDFATYYCQQSYSAPPYTFGQGTKVEIK 15.5
